From: patent US11339193B2

# System: HER3ss-Gluc
# ASSAY PROTOCOL: HER3ss assay
# Assay type: cell-based
# REPORTED CONDITIONS: HEK-293T T-rex cells, transient transfection, doxycycline, 24 h; read-out: HER3 ss IC50
Numbered stars: 1 amine (or outer) side, 2 acyl side, 3 side chain; on linkers, the order of the positions; unused ones are H or OH. Square brackets hold non-standard residues; d marks the D form. Peptide text beside a SMILES is read from it. X13 = CN([C@@H](Cc1cn(Cc2ccc(Br)cc2)c2ccc(F)cc12)C(=O)[*:2])[*:1]; Butanoyl(2R-oxy,4-CN) = N#CCC[C@@H](O)C(=O)O; Abu(4,4,4-F3) = N[C@@H](CC(F)(F)F)C(=O)O; NMeL = CN[C@@H](CC(C)C)C(=O)O; NMeA = CN[C@@H](C)C(=O)O
// values below are reported IC50
Just the number in nM, nothing appended.

In the examples that follow, each entry is paired with its recorded IC50.
MOLECULE	TESTED TARGET	IC50 [nM]
CC(C)C[C@@H]1NC(=O)[C@H](Cc2cn(Cc3ccc(Br)cc3)c3ccc(F)cc23)N(C)C(=O)[C@H](CC(F)(F)F)NC(=O)[C@H](CC(C)C)N(C)C(=O)[C@H](CC(F)(F)F)NC(=O)[C@@H](CCC#N)OC(=O)[C@H](C)N(C)C1=O [C-82] (cyclo(L[NMeA][Butanoyl(2R-oxy,4-CN)][Abu(4,4,4-F3)][NMeL][Abu(4,4,4-F3)][X13]))	HER3ss-Gluc	98
C#CC[C@H]1OC(=O)[C@H](C)N(C)C(C)[C@H](C[C@H](C)CCCC)NC(=O)[C@H](Cc2ccccc2)N(C)C(=O)[C@H](CC(C)C)NC(=O)[C@H](CC(C)C)N(C)C(=O)[C@H](C[C@H](C)CCCC)NC1=O (stereo partly drawn)	HER3ss-Gluc	40

# next molecule below
For the molecule CC(C)C[C@@H]1NC(=O)[C@H](Cc2cn(Cc3ccccc3)c3ccccc23)N(C)C(=O)[C@H](CC(C)C)NC(=O)[C@H](CC(C)C)N(C)C(=O)[C@H](CC(C)C)NC(=O)[C@@H](CCC#N)OC(=O)[C@H](C)N(C)C1=O [C-16] (HELM PEPTIDE1{L.[meA].[N#CCC[C@@H](O[*:1])C(=O)[*:2]].L.[meL].L.[CN([C@@H](Cc1cn(Cc2ccccc2)c2ccccc12)C(=O)[*:2])[*:1]]}$PEPTIDE1,PEPTIDE1,1:R1-7:R2$$$V2.0) , give its measured IC50 value.
38

----------
# Tested on: BT474 breast tumor cell line
# ASSAY PROTOCOL: BT474 assay (Alamar blue)
# Assay type: cell-based
# REPORTED CONDITIONS: Homo sapiens, BT-474, 72 h
Peptide text beside a SMILES is read from it.
PARAMETER: EC50 (nM)
Just the number in nM, nothing appended.

For the compound CC(C)C[C@@H]1NC(=O)[C@H](Cc2cn(Cc3ccccc3)c3ccccc23)N(C)C(=O)[C@H](CC(C)C)NC(=O)[C@H](CC(C)C)N(C)C(=O)[C@H](CC(C)C)NC(=O)[C@@H](CCC#N)OC(=O)[C@H](C)N(C)C1=O [C-16] (HELM PEPTIDE1{L.[meA].[N#CCC[C@@H](O[*:1])C(=O)[*:2]].L.[meL].L.[CN([C@@H](Cc1cn(Cc2ccccc2)c2ccccc12)C(=O)[*:2])[*:1]]}$PEPTIDE1,PEPTIDE1,1:R1-7:R2$$$V2.0) , give its measured EC50 value.
745
